// values below are reported koff
Molecular target: T1, Baboon EL-C2 tag (baboon, UniProt Q9Y5X9 21-500 (human entry), limits assumed)
T1 construct: used as heparin extract of transfected HEK293F cells; also called baboon EL heparin extract
T1 chain: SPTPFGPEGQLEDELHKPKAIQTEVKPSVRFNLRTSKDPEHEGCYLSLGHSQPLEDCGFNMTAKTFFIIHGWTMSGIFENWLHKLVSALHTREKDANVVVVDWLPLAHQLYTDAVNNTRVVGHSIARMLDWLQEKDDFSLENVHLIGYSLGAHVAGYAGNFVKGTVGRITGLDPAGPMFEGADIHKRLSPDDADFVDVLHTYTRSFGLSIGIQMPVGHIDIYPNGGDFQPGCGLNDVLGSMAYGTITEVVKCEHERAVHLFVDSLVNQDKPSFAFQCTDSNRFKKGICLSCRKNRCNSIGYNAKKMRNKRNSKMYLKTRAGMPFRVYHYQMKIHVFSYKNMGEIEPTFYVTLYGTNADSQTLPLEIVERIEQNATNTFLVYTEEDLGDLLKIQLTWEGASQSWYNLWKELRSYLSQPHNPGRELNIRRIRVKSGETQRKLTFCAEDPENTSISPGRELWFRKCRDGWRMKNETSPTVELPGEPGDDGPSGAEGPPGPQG
Assay: Biacore SPR; EL heparin extract captured by anti-C2-tag antibody on CM5, antibody as analyte, bivalent fit
Numeric answer only, unit s⁻¹ assumed.

Study these solved cases before continuing.
BINDER	RECORDED_VALUE
8F5 antibody (antibody, IgG2a, V domains shown) VH: QVTLKESGPGILQPSQTLSLTCSFSGFSLSTSNMGVGWIRQPSGKGLEWLAHIWWNDYKYYNTALKSRLTISKDTSNNQVFLKIASLDTADTATYYCARIGGGTPLDYWGQGTSLTVSS VL: DIQMAQSPSSLSASLGGKVTITCKASQDIHTYIAWYQHKPGKGPRLLMLYTSTLQPGIPSRFSGSGSGRDYSFSISNLEPEDIATYYCLQYDDLLWTFGGGTKLEIK	0.00021
41H8 antibody (antibody, IgG1, V domains shown) VH: QVTLKESGPGILQPSQTLSLTCSFSGFSLSTYGMGVGWIRQPSGKGLEWLAHIWWNENKYYNTDLKSRLTISKDTSNNQVFLKIASVDTADTATYYCARIGPGVPFDYWGQGTTITVSS VL: DIQMTQSPSSLSASLGGKVTITCKASQDINKFIAWYQHKPGKGPRLLIHYTSTLQPGIPSRFNGSGSGRDYSFTISNLEPEDIATYYCLQYDILTWTFGGGTKLEIK	0.00029
16A11 antibody (antibody, IgG1, V domains shown) VH: QVTLKESGPGILQPSQTLSLTCSFSGFSLSTSGMGVGWVRQPSGKGLEWLAHIWWNDYYYYKTALKSRLTISKDTSNNQVFLKIASVDTVDTATYYCARMAPGTPFPSWGQGTLVTVSA VL: DIQMTQSPSSLSASLGGKVTITCKASQDINRYIAWYQHKPGKGPRLLIHYTSTLQPGIPSRFSGSGSGRDYSFSISNLEPEDIATYYCLQYDILLWTFGGGTKLEIK	0.00012
12B10 antibody (antibody, IgG2a, V domains shown) VH: QVTLKESGPGILKPSQTLSLTCSFSGFSLSTSGMGVGWIRQPSGKGLEWLAHIWWNDEKYYNPSLKSQLTISKDTSRNQVFLKITSVDTADTATYYCARSYDGSPFPSWGQGTLVTVSA VL: DIQMTQSPSSLSASLGGKVTITCKASQDINKYIAWFQHKPGKGPRLLMAYPFTLQPGIPSRFSGNGSGRDYSFSISNLEPEDIATYYCLQYDNLLWTFGGGTRLEIK	0.00021
47B2 antibody (antibody, IgG2a, V domains shown) VH: QVALKESGPGILQPSQTLSLTCSFSGFSLSTSGMGVGWIRQPSGKGLEWLAHIWWHGNKYYSTGLKSRLTISKDTSNNQVFLKIASVDTADTATYYCARISAGYPLDYWGQGTSVTVSS VL: DIQMTQSPSSLSASLGGKVTITCKASQDINKYIVWYQHKPGKGPRLLIHYTSTLQPGFPSRFSGSGSGRDYSLSITNLEPEDIATYYCLQYDNLLWTFGGGTKLEIK	0.00056

Quick one: koff for 3B1 antibody (antibody, IgG1, V domains shown) VH: QVTLKESGPGILQPSQTLSLTCSFSGFSLSTSGVGVGWIRQPSGKGLEWLAHIWWNDNKYYNTALKSRLTISKDTSNNQVFLKIASVDTADTATYFCARSYDGYPFDYWGQGTLVTVSA VL: DIQMTQSPSSLSASLGGKVTITCKASQDINKYIVWYQHKPGKGPRLLIHHTSTLQPGIPSRFSESGSGRDYSFSISNLEPEDIASYYCLQYDTLLWTFGGGTKLEIR ?
0.00014

Would you kindly repeat that for 25E4 antibody (antibody, IgG2b, V domains shown) VH: QVALKESGPGILQPSQTLSLTCSFSGFSLSTSGMGVGWIRQPSGKGLEWLAHIWWHGNKYYSTALKSRLTISKDTSNNQVFLKIASVDTADTATYYCARISDGYPLDYWGQGTSVTVSS VL: DIQMTQSPSSLSASLGGKVTITCKASQDINKYIVWYQQKPGKGPRLLIHYTSTLQPGFPSRFSGSGSGRDYSLSITNLEPEDIATYYCLQYDNLLWTFGGGTKLEIK ?
0.00016

FYI, the data here is from patent US20150025225A1.
